The measurements presented in this section are drawn from patent US7795261B2.

# TGT: NK3 (Homo sapiens, UniProt P29371)
# Sequence (P29371 1-465): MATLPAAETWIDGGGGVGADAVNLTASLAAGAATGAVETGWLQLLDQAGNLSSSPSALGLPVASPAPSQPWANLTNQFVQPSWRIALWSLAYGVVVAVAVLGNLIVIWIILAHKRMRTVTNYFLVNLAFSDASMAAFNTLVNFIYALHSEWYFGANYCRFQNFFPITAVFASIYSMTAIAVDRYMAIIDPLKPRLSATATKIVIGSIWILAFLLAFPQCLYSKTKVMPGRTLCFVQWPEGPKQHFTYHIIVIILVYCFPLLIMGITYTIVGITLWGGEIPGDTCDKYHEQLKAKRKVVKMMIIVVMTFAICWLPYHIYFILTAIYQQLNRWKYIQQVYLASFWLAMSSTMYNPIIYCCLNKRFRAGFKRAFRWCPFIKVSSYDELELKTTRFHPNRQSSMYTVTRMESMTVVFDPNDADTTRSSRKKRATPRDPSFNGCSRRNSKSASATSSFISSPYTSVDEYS
# ASSAY_PROTOCOL: Signal transduction (ST), intracellular Ca++ (FLIPR), NK3
# Format: cell-based
# CONDITION_SET: read-out: pIC50 NK3 (converted)
Exercise: for every item that follows, state its recorded IC50.
Numbers only, in µM.

# COMPOUND, TGT, MEASURE_UNIT, VALUE_REPORTED
rows = [
    ("COc1ccc(C(=O)N2CCC(N3CCN([C@H]4CCN(C(=O)c5cc(C(F)(F)F)cc(C(F)(F)F)c5)[C@H](Cc5ccccc5)C4)CC3)C2)s1 (stereo partly drawn)", "NK3 (Homo sapiens, UniProt P29371)", "µM", 5.01),
    ("O=C(c1cnccn1)N1CC[C@H](N2CCN([C@H]3CCN(C(=O)c4cc(C(F)(F)F)cc(C(F)(F)F)c4)[C@H](Cc4ccc(Cl)c(Cl)c4)C3)CC2)C1", "NK3 (Homo sapiens, UniProt P29371)", "µM", 0.316),
    ("CC(C)(C)C(=O)N1CCC(N2CCN(C3CCN(C(=O)c4cc(C(F)(F)F)cc(C(F)(F)F)c4)C(Cc4ccccc4)C3)CC2)C1 (stereo not drawn)", "NK3 (Homo sapiens, UniProt P29371)", "µM", 0.631),
    ("CN(C)C(=O)N1CCC(N2CCN([C@H]3CCN(C(=O)c4cc(C(F)(F)F)cc(C(F)(F)F)c4)[C@H](Cc4ccccc4)C3)CC2)C1 (stereo partly drawn)", "NK3 (Homo sapiens, UniProt P29371)", "µM", 2),
    ("O=C(c1ccsc1)N1CCC(N2CCN([C@H]3CCN(C(=O)c4cc(C(F)(F)F)cc(C(F)(F)F)c4)[C@H](Cc4ccccc4)C3)CC2)C1 (stereo partly drawn)", "NK3 (Homo sapiens, UniProt P29371)", "µM", 0.2),
]

Now let's try a different one.
# query: IC50 of entry O=C(c1cc(C(F)(F)F)cc(C(F)(F)F)c1)N1CC[C@H](N2CCN(C3CCN(S(=O)(=O)c4ccc(CCO)s4)C3)CC2)C[C@H]1Cc1ccccc1 (stereo partly drawn)
1

---

# TGT: UniProt:P25103
# ASSAY_PROTOCOL: Signal transduction (ST), intracellular Ca++ (FLIPR), NK1 antagonistic activity
# Format: cell-based
# CONDITION_SET: read-out: pIC50 NK1 (converted)
Exercise: for every item that follows, state its recorded IC50.
Answers are plain numbers, in nM.

Past entries and their recorded results:
# COMPOUND, IC50, nM
records = [
    ("O=C(c1ccc(Cl)cc1Cl)N1CCC(N2CCN([C@H]3CCN(C(=O)c4cc(C(F)(F)F)cc(C(F)(F)F)c4)[C@H](Cc4ccccc4)C3)CC2)C1 (some centres unmarked)", 50.1),
    ("O=C(C1CCCO1)N1CCC(N2CCN([C@H]3CCN(C(=O)c4cc(C(F)(F)F)cc(C(F)(F)F)c4)[C@H](Cc4ccccc4)C3)CC2)C1 (some centres unmarked)", 10),
    ("Cn1cnc(C(=O)N2CCC(N3CCN([C@H]4CCN(C(=O)c5cc(C(F)(F)F)cc(C(F)(F)F)c5)[C@H](Cc5ccccc5)C4)CC3)C2)c1 (some centres unmarked)", 12.6),
    ("O=C(C1CCCCC1)N1CCC(N2CCN(C3CCN(C(=O)c4cc(C(F)(F)F)cc(C(F)(F)F)c4)C(Cc4ccccc4)C3)CC2)C1 (single isomer, unassigned) [Compound 402]", 15.8),
]

# query: IC50 of entry O=C(Cn1cnc2ccccc21)N1CCC(N2CCN([C@H]3CCN(C(=O)c4cc(C(F)(F)F)cc(C(F)(F)F)c4)[C@H](Cc4ccccc4)C3)CC2)C1 (some centres unmarked)
15.8

---

# TGT: NK2 (Homo sapiens)
# Sequence (P21452 whole entry): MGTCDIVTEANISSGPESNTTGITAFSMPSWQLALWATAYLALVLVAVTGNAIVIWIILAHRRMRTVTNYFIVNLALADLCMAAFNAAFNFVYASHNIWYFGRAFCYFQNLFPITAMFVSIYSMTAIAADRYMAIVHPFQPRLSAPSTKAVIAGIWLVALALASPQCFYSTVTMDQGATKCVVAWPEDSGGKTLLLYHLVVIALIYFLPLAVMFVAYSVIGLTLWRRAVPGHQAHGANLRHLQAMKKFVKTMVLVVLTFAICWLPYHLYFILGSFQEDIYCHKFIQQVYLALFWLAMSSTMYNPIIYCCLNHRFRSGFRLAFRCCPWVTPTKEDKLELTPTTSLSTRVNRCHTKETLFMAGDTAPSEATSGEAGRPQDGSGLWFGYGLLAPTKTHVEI
# ASSAY_PROTOCOL: Signal transduction (ST), intracellular Ca++ (FLIPR), NK2
# Assay type: cell-based
# CONDITION_SET: read-out: pIC50 NK2 (converted)
Field: label. Allowed values: true (1) (IC50 < 3000 nM) or false (0) (IC50 >= 3000 nM).

Here are 4 molecules together with their reported answers.
# MOLECULE, CLASS
data = [
    ("COc1ccc(Cl)cc1S(=O)(=O)N1CCC(N2CCN([C@H]3CCN(C(=O)c4cc(C(F)(F)F)cc(C(F)(F)F)c4)[C@H](Cc4ccccc4)C3)CC2)C1 (some centres unmarked)", "true (1)"),
    ("O=C(c1cc(C(F)(F)F)cc(C(F)(F)F)c1)N1CCC(N2CCN(C3CCN(c4ncccn4)C3)CC2)CC1Cc1ccccc1 (centres unmarked)", "false (0)"),
    ("O=C(c1cccnc1)N1CCC(N2CCN([C@H]3CCN(C(=O)c4cc(C(F)(F)F)cc(C(F)(F)F)c4)[C@H](Cc4ccccc4)C3)CC2)C1 (some centres unmarked)", "true (1)"),
    ("CC(C)(C)C(=O)N1CCC(N2CCN(C3CCN(C(=O)c4cc(C(F)(F)F)cc(C(F)(F)F)c4)C(Cc4ccccc4)C3)CC2)C1 (centres unmarked)", "true (1)"),
]

Dear colleague, could you confirm whether IC50 of "O=C(c1cccs1)N1CC[C@H](N2CCN([C@H]3CCN(C(=O)c4cc(C(F)(F)F)cc(C(F)(F)F)c4)[C@H](Cc4ccccc4)C3)CC2)C1" falls below 3000 nM? Thanks.
false (0)

---

# TGT: NK1 (Homo sapiens, UniProt P25103)
# Sequence (P25103 whole entry): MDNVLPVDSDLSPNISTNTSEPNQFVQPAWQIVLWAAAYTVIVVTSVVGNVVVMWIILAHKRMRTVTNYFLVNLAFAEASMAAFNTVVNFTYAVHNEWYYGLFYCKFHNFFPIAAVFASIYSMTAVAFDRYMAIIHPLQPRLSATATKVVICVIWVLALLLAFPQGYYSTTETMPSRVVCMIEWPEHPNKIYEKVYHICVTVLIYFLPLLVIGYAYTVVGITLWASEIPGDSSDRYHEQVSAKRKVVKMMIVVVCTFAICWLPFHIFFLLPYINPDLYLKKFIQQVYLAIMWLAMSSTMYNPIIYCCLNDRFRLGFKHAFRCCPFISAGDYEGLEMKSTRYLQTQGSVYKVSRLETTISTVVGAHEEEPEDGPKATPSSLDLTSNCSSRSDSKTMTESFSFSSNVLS
# ASSAY_PROTOCOL: Signal transduction (ST), intracellular Ca++ (FLIPR), NK1 antagonistic activity
# Type: cell-based
# CONDITION_SET: read-out: pIC50 NK1 (converted)
Exercise: for every item that follows, state its recorded IC50.
Answers are plain numbers, in nM.

# COMPOUND, IC50 (nM)
records = [
    ("COCC(=O)N1CCC(N2CCN(C3CCN(C(=O)c4cc(C(F)(F)F)cc(C(F)(F)F)c4)C(Cc4ccccc4)C3)CC2)C1 (stereo not drawn)", 63.1),
    ("O=C(c1ccsc1)N1CCC(N2CCN([C@H]3CCN(C(=O)c4cc(C(F)(F)F)cc(C(F)(F)F)c4)[C@H](Cc4ccccc4)C3)CC2)C1 (stereo partly drawn)", 15.8),
    ("O=C(C(c1ccccc1)N1CCCC1)N1CCC(N2CCN(C3CCN(C(=O)c4cc(C(F)(F)F)cc(C(F)(F)F)c4)C(Cc4ccccc4)C3)CC2)C1 (stereo not drawn)", 31.6),
    ("CN(C(=O)C1CC1)C(C)(C)C(=O)N1CCC(N2CCN(C3CCN(C(=O)c4cc(C(F)(F)F)cc(C(F)(F)F)c4)C(Cc4ccccc4)C3)CC2)C1 (stereo not drawn)", 7.94),
    ("CC(=O)OCC(=O)N1CCC(N2CCN(C3CCN(C(=O)c4cc(C(F)(F)F)cc(C(F)(F)F)c4)C(Cc4ccccc4)C3)CC2)C1 (stereo not drawn)", 15.8),
]

# query: IC50 of entry O=C(c1ccsc1)N1CCC(N2CCN(C3CCN(C(=O)c4cc(C(F)(F)F)cc(C(F)(F)F)c4)C(Cc4ccc(F)c(F)c4)C3)CC2)C1 (single isomer, unassigned) [Compound 257]
10

---

# TGT: NK1 (Homo sapiens, UniProt P25103)
# ASSAY_PROTOCOL: Signal transduction (ST), intracellular Ca++ (FLIPR), NK1 antagonistic activity
# Type: cell-based
# CONDITION_SET: read-out: pIC50 NK1 (converted)
RECORDED_ENDPOINT: IC50 (nM)
Numbers only, in nM.

Past entries and their recorded results:
# MOLECULE, TGT, IC50 [nM]
data = [
    ("COc1ccc(NC(=NC#N)N2CCC(N3CCN([C@H]4CCN(C(=O)c5cc(C(F)(F)F)cc(C(F)(F)F)c5)[C@H](Cc5ccccc5)C4)CC3)C2)cc1 (some centres unmarked)", "NK1 (Homo sapiens, UniProt P25103)", 15.8),
    ("CC(C)(C)C(=O)N1CCC(N2CCN(C3CCN(C(=O)c4cc(C(F)(F)F)cc(C(F)(F)F)c4)C(Cc4ccc(F)c(F)c4)C3)CC2)C1 (single isomer, unassigned)", "NK1 (Homo sapiens, UniProt P25103)", 7.94),
    ("O=C(C1CC1)N1CCC(N2CCN([C@@H]3CCN(C(=O)c4cc(C(F)(F)F)cc(C(F)(F)F)c4)[C@H](Cc4ccc(Cl)c(Cl)c4)C3)CC2)C1 (relative stereo)", "NK1 (Homo sapiens, UniProt P25103)", 39.8),
    ("Cn1cccc(C(=O)N2CCC(N3CCN(C4CCN(C(=O)c5cc(C(F)(F)F)cc(C(F)(F)F)c5)C(Cc5ccc(F)c(F)c5)C4)CC3)C2)c1=O (single isomer, unassigned) [Compound 368]", "NK1 (Homo sapiens, UniProt P25103)", 10),
]

# query: IC50 of entry O=C(C1CCC1)N1CCC(N2CCN([C@H]3CCN(C(=O)c4cc(C(F)(F)F)cc(C(F)(F)F)c4)[C@H](Cc4ccccc4)C3)CC2)C1 (some centres unmarked)
6.31
